Sourced from ChEMBL document CHEMBL3822442

Experiment: Systemic clearance in Sprague-Dawley rat at 0.2 mg/kg, iv through cassette dosing measured up to 300 mins by LC/MS/MS analysis
Assay type: ADME, organism-based
Conditions: in vivo
QUANTITY NAME: clearance (mL/min/kg)
Give bare numbers, in mL/min/kg.

So, H-HGDGSFSDEMNTILDNLAARDFINWLIQTK-NH2 ? Its clearance was 20
